Test: small-molecule binders of probe aLefty1, primary screen, biochemical, small-molecule microarray, 635/667 nm fluorescence (AID 1153);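 note: score merges spot fluorescence with signal-to-noise ratio from the scanned slide images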
Settings: higher = more signal
property.measured: composite z-score
Provide a numeric answer; units are not to be included.

Query: Please look at this molecule and report its composite z-score: CCCc1cc2c(n1Cc1cc(F)cc(F)c1)C(C)C1CN(C(=O)c3ccccc3)C(C)(C(=O)OC)C21 (stereo not given)
Reply: 0.269

---

Test: splicing luciferase reporter signal modulators, primary screen, spliceosome inhibition project, cell-based, HEK293, splice +/- reporter (AID 1101);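 note: HEK293 cells carrying a splicing-competent luciferase reporter gene; test concentration not given here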
Conditions: luminescence, 24 h, higher = more signal, called active from +8 up or from −8 down
property.measured: z-score
In your answer, state the number alone without any accompanying words.

Known z-score results, listed for orientation:
| compound | assay.value |
| --- | --- |
| COc1ccc(CCNC(=O)[C@@H]2c3ccccc3C(=O)N(Cc3ccccc3Cl)[C@H]2c2ccc(CO)cc2)cc1 | -0.153 |
| C=CCN1C(=O)[C@@]2(Cc3ccccc31)N=C(c1ccc(OCCCO)cc1)O[C@H]2c1ccccc1 | -1.52 |
| C=CCN1C(=O)[C@]2(O[C@H](CCn3cc([C@H](O)c4ccccc4)nn3)[C@@H]([Si](C)(C)c3ccc(OC)cc3)[C@@H]2C)c2ccccc21 | 3.39 |
| CCCCCCc1nc(-c2ccc(OC)nc2)cc2c1[Si](C(C)C)(C(C)C)O[C@H]2c1ccccc1 | -0.0107 |
| COCCOC(=O)N1C(=O)[C@@]2(c3ccccc31)[C@H](c1ccccc1OCCO)N1[C@H](c3ccccc3)[C@H](c3ccccc3)OC(=O)[C@H]1[C@@H]2C(=O)N1CCN(c2ncccn2)CC1 | -0.869 |

Query: Identify measured z-score corresponding to C[C@H]1NC(=O)[C@@]23C(=O)N[C@@H](Cc4ccccc4)C2[C@H](C)[C@@]2(C)O[C@H]2C3/C=C/C/C=C\CNC(=O)[C@@H]2CCCN2C1=O (stereo partly drawn)
Reply: 0.856

Query: Complete the entry with z-score for "[N-]=[N+]=Nc1ccccc1[C@@H]1OC(c2ccc(OCCCO)cc2)=N[C@]1(CCS(=O)(=O)c1ccccc1)C(N)=O"
Reply: -0.752

Query: Look up and state reported z-score for "CC(C)N1C(=O)c2ccccc2[C@](C)(C(=O)NCCN2CCOCC2)[C@@H]1c1ccc(CO)cc1"
Reply: 0.0672

---

Target: Torsin-1A-interacting protein 1 (Homo sapiens)
Assay: LAP1 binders from COS7 cell lysate, primary screen, small-molecule microarray, 635/667 nm fluorescence (AID 1116)
Conditions: COS7-hLAP1 lysate binding, 635 nm fluorescence, higher = more signal
property.measured: composite z-score
Lab note: jot down the number only; don't add units.

# count of solved cases: 5
| compound | composite z-score |
| --- | --- |
| N#Cc1ccc(NN2C(C(O)C(c3ccccc3)c3ccccc3)C=CC3C(=O)N(c4ccccc4)C(=O)C32)cc1 (stereo not drawn) | 0.307 |
| C[C@H]1C2[C@H](Cc3ccccc3)NC(=O)[C@]23C(=O)N[C@H](Cc2ccccc2)C(=O)N2CCC[C@H]2C(=O)NC/C=C\C/C=C/C3[C@@H]2O[C@]12C (stereo partly drawn) | 0.0015 |
| COc1cc2c(cc1OC)CN(C(=O)[C@@H]1[C@H]3C(=O)O[C@H](c4ccccc4)[C@H](c4ccccc4)N3[C@H](c3ccccc3OCCO)[C@@]13C(=O)Nc1ccc(C#CCCO)cc13)CC2 | 2.22 |
| C=CCOC(=O)[C@H]1[C@@H]2C(=O)O[C@@H](c3ccccc3)[C@@H](c3ccccc3)N2[C@@H](c2ccc(OCCOC(=O)[C@H]3C[C@H]4C(=O)N[C@@H](CCCCNC(C)=O)C(=O)N4[C@H]3c3ccc(O)cc3)cc2)[C@]12C(=O)Nc1ccc(I)cc12 | 0.612 |
| CCCCCCc1nc(-c2ccc(OC)nc2)cc2c1[Si](C(C)C)(C(C)C)O[C@H]2c1ccccc1 | -0.476 |

Query: Provide measured composite z-score value, entry: "COC(=O)C(CC#Cc1ccc2c(c1)[C@]1(C(=O)N2)[C@H](C(=O)Nc2nc3ccccc3s2)[C@H]2C(=O)O[C@H](c3ccccc3)[C@H](c3ccccc3)N2[C@@H]1c1ccc(O)cc1)C(=O)OC"
Reply: 1.89

Query: Complete the entry with composite z-score for "C=CCOC(=O)[C@H]1[C@@H]2C(=O)O[C@@H](c3ccccc3)[C@@H](c3ccccc3)N2[C@@H](c2ccc(OCCOC(=O)[C@@H]3C[C@@H]4C(=O)N[C@@H](CC(C)C)C(=O)N4[C@@H]3c3ccc(O)cc3)cc2)[C@]12C(=O)Nc1ccccc12"
Reply: 1.75

Source: PubChem BioAssay
